Values from BindingDB's records for doi:10.7270/Q2JQ0ZF7

Listed here are molecules together with their documented pEC50.
Molecular target: GTPase KRas [1-37] (Homo sapiens)
Construct: 1-37
Sequence (G3V5T7 whole entry): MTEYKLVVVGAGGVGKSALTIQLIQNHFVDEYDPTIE
Assay: Ras wild-type GTP-binding inhibitors, SAR follow-up, biochemical, oxadiazole analogs, multiplex bead flow cytometry (AID 2053)
Settings: inactive by the depositor's call
pEC50: −log10 of the molar value.
Reported Metric: pEC50

| Compound | Tgt | Reading |
| --- | --- | --- |
| COc1ccc(-c2noc(CCC(=O)N3CCN(c4cc(C)ccc4C)CC3)n2)cc1 | GTPase KRas [1-37] (Homo sapiens) | 5.77 |
| Cc1ccc(C)c(N2CCN(C(=O)CCc3nc(-c4ccc(Br)cc4)no3)CC2)c1 | GTPase KRas [1-37] (Homo sapiens) | 5.74 |
| COc1ccc(-c2noc(CCC(=O)N3CCN(c4ccccc4F)CC3)n2)cc1 | GTPase KRas [1-37] (Homo sapiens) | 7.30 |
| COc1ccc(-c2noc(CCC(=O)N3CCN(c4cccc(Br)c4)CC3)n2)cc1 | GTPase KRas [1-37] (Homo sapiens) | 7.77 |
| Cc1ccc(C)c(N2CCN(C(=O)CCc3nc(-c4ccccc4Br)no3)CC2)c1 | GTPase KRas [1-37] (Homo sapiens) | 7.48 |
| COc1cccc(-c2noc(CCC(=O)N3CCN(c4cc(C)ccc4C)CC3)n2)c1 | GTPase KRas [1-37] (Homo sapiens) | 5.83 |
| COc1ccc(-c2noc(CCC(=O)N3CCN(c4ccccc4Cl)CC3)n2)cc1 | GTPase KRas [1-37] (Homo sapiens) | 5.73 |
| Cc1ccc(C)c(N2CCN(C(=O)CCc3nc(-c4ccccc4)no3)CC2)c1 | GTPase KRas [1-37] (Homo sapiens) | 6.06 |
